Data origin, for the record: patent US20100298141A1

system: rice; test: Test C flooded paddy test; assay type: in vivo, Oryza sativa; details: Flood, 250 g ai/ha; scale 0 to 100, 0 no effect, 100 complete control; 13 to 15 days
MEASUREMENT_NAME: Plant response rating, Rice

>>> df
                                   compound  test_system             measurement_name  reading
0  Cc1cc[n+]([O-])c([S+]([O-])Cc2c(C(F)(F)C(F)(F)F)nn(C)c2OCC(F)(F)F)c1 (stereo not shown) [Compound 91]         rice  Plant response rating, Rice       70
1  Cn1nc(C(F)(F)F)c(CS(=O)(=O)c2ccc(F)c[n+]2[O-])c1OC(F)F [Compound 107]         rice  Plant response rating, Rice        0
2  Cc1cc[n+]([O-])c([S+]([O-])Cc2c(C(F)(F)F)nn(C)c2OC(C)C(F)(F)F)c1 (stereo not shown) [Compound 88]         rice  Plant response rating, Rice       45
3  [O-][n+]1ccccc1[S+]([O-])C(Cl)c1c(C(F)(F)F)nn(CC(F)(F)F)c1Cl (stereo not shown) [Compound 45]         rice  Plant response rating, Rice       25

---

Entries and their Wheat plant response rating values follow.
system: wheat; assay: Test C pre-/postemergence test; format: in vivo, Triticum aestivum; conditions: 62 g ai/ha, Preemergence; scale 0 to 100
MEASUREMENT_NAME: Wheat plant response rating

>>> print(df.to_string())
                                   compound             measurement_name  reading
0  Cn1nc(C(F)(F)F)c(CS(=O)(=O)c2cccc[n+]2[O-])c1OCC(F)(F)F [Compound 29]  Wheat plant response rating       30
1  Cn1nc(C(F)(F)F)c(C[S+]([O-])c2cccc[n+]2[O-])c1OCC(F)(F)F (racemic) [Compound 28]  Wheat plant response rating       40
2  Cn1nc(C(F)(F)F)c(C[S+]([O-])c2ccc(F)c[n+]2[O-])c1OC(F)F (stereo not shown) [Compound 58]  Wheat plant response rating       60
3  Cc1cc[n+]([O-])c(S(=O)(=O)C(Cl)c2c(C(F)(F)F)nn(C)c2Cl)c1 (racemic) [Compound 22]  Wheat plant response rating        0

---

test system: lambsquarters; experiment: Test C pre-/postemergence test; assay type: in vivo, Chenopodium album; details: 62 g ai/ha, preemergence; scale 0 (no effect) to 100 (complete control)
Entries and their Lambsquarters plant response rating values follow.
MEASUREMENT_NAME: Lambsquarters plant response rating

In [3]: df
Out[3]:
                                   molecule  reading
0  Cn1nc(C(F)(F)F)c(C[S+]([O-])c2ccc(Br)c[n+]2[O-])c1OC(F)F (racemic) [Compound 16]       90
1  Cn1nc(C(F)(F)F)c(CS(=O)(=O)c2cccc[n+]2[O-])c1OC(F)F [Compound 4]       50
2  Cn1nc(C(F)(F)F)c(C[S+]([O-])c2cccc[n+]2[O-])c1OC(F)F (centres unmarked) [Compound 3]      100
3  Cn1nc(C(F)(F)F)c(C(Cl)S(=O)(=O)c2cccc[n+]2[O-])c1Cl (centres unmarked) [Compound 12]      100
4  CC(c1c(C(F)(F)F)nn(C)c1OC(F)F)S(=O)(=O)c1cccc[n+]1[O-] (centres unmarked) [Compound 5]      100
